Give MIC for every item shown.
# Tested on: Enterobacterales
# Assay Summary: MIC, broth microdilution, CDC/FDA Antibiotic Resistance Isolate Bank (Example 7, Tables 8, 11, 12)
# Format: cell-based
# Conditions: Enterobacter cloacae, Enterobacter cloacae KUB No. 5807, AR Bank #501; read-out: MIC

QUERY: Need MIC, item C[C@H]1COc2c(N3CCN(C)CC3)c(F)cc3c(=O)c(C(=O)O)cn1c23 [Levofloxacin, levofloxacin]
RESULT: 1 µg/mL

QUERY: Which MIC value is on record for CC(C)(O/N=C(\C(=O)N[C@@H]1C(=O)N2C(C(=O)[O-])=C(C[N+]3(CCNC(=O)c4ccc(O)c(O)c4Cl)CCCC3)CS[C@H]12)c1csc(N)n1)C(=O)O [Cefiderocol, cefiderocol] ?
RESULT: 1 µg/mL

QUERY: What MIC value was documented for this compound, NCC[C@H](O)C(=O)N[C@@H]1C[C@H](N)[C@@H](O[C@H]2O[C@H](CN)[C@@H](O)[C@H](O)[C@H]2O)[C@H](O)[C@H]1O[C@H]1O[C@H](CO)[C@@H](O)[C@H](N)[C@H]1O [Amikacin, amikacin] ?
RESULT: 4 µg/mL

QUERY: Using the record for CO/N=C(\C(=O)N[C@@H]1C(=O)N2C(C(=O)[O-])=C(C[n+]3ccn4ncccc43)CS[C@H]12)c1nsc(N)n1 [Cefozopran, cefozopran] , report its MIC.
RESULT: > 64 µg/mL

QUERY: I'd like to know its MIC. The compound in question is C[C@H]1[C@H](NC(=O)/C(=N\OC(C)(C)C(=O)O)c2csc(N)n2)C(=O)N1S(=O)(=O)O [Aztreonam, aztreonam]
RESULT: 1 µg/mL
